# PROCEDURE TEXT: Metabolic stability in liver microsomes (MLM)
# Type: in vitro ADME, mice
# TEST SETTINGS: mouse, liver microsomes, pH 7.4, 1 μM compound, 0.25 mg/mL protein, read-out: T1/2 in mins (MLM)
QUANTITY KIND: half-life at 1 μM (min)

Some entries whose results are on file:
>>> df
                                   compound      quantity_kind  result_value
0  FC1(F)Cc2ccccc2/C1=N/Nc1nc2ccccc2s1 [7-35]  half-life at 1 μM            12
1  O=C1/C(=N\Nc2nc3ccccc3s2)Cc2cc(F)ccc21 [7-70]  half-life at 1 μM            50
2  Fc1cccc2nc(N/N=C3/CCc4ccccc43)sc12 [7-65]  half-life at 1 μM             6
3  O=C1/C(=N\Nc2nc3ccccc3s2)Cc2cc(N3CCC3)ccc21 [7-113]  half-life at 1 μM            15
4  CCN(CC)c1ccc2c(c1)C(=O)/C(=N\Nc1nc3ccccc3s1)C2 [7-109]  half-life at 1 μM            13
5  COC(=O)c1ccc2c(c1)C(=O)/C(=N\Nc1nc3ccccc3s1)C2 [7-110]  half-life at 1 μM            32

A. O=C1/C(=N\Nc2nc3ccccc3s2)Cc2cc(F)cc(F)c21 [7-102]
B. CC(C)Oc1ccc2c(c1)C(=O)/C(=N\Nc1nc3ccccc3s1)C2 [7-74]
C. CC(C)(C)OC(=O)c1ccc2c(c1)C(=O)/C(=N\Nc1nc3ccccc3s1)C2 [7-119]
D. Fc1cccc2c1/C(=N\Nc1nc3ccccc3s1)CC2 [7-58]
Ask: Order the records, beginning with the lowest half-life at 1 μM and ending with the highest. When ranking, write the labels in the order the request describes.
Result: D, B, C, A
(D: 7 min, B: 17 min, C: 27 min, A: 56 min)

I. Nc1ccc2c(c1)C/C(=N/Nc1nc3ccccc3s1)C2=O [7-120]
II. O=C1/C(=N\Nc2nc3ccccc3s2)Cc2cc(O)ccc21 [7-121]
Ask: // pick min by half-life at 1 μM: I , II Write down the label of the entry you select.
Result: I

====

# PROCEDURE TEXT: Metabolic stability in liver microsomes (MLM)
# Type: in vitro ADME, mice
# TEST SETTINGS: percent remaining at 60 min, 1 μM compound, 0.25 mg/mL protein, 1 mM NADPH
QUANTITY KIND: Met Stab % (60 mins) MLM (%)

Solved cases (3 shown):
>>> print(df.to_string())
                                   compound             quantity_kind  unit_label  result_value
0             Cc1nc(N/N=C2/CCc3ccccc32)sc1C  Met Stab % (60 mins) MLM           %             1
1  O=C1/C(=N\Nc2nc3ccccc3s2)Cc2cc(-c3ccccc3)ccc21  Met Stab % (60 mins) MLM           %            26
2       O=C1/C(=N\Nc2nc3ccccc3s2)Oc2ccccc21  Met Stab % (60 mins) MLM           %             4

A. CC1(C)Cc2ccccc2/C1=N\Nc1nc2ccccc2s1
B. O=C1/C(=N\Nc2nc3ccccc3o2)Cc2ccccc21
C. O=C1/C(=N\Nc2nc3ccccc3s2)Cc2cc(F)c(F)cc21
Ask: // ranking: key=Met Stab % (60 mins) MLM, reverse=True Reply format: the labels, ordered as requested.
Result: C, B, A

====

# TEST TARGET: BRN2 (Homo sapiens, UniProt P20265)
# Sequence (P20265 1-443): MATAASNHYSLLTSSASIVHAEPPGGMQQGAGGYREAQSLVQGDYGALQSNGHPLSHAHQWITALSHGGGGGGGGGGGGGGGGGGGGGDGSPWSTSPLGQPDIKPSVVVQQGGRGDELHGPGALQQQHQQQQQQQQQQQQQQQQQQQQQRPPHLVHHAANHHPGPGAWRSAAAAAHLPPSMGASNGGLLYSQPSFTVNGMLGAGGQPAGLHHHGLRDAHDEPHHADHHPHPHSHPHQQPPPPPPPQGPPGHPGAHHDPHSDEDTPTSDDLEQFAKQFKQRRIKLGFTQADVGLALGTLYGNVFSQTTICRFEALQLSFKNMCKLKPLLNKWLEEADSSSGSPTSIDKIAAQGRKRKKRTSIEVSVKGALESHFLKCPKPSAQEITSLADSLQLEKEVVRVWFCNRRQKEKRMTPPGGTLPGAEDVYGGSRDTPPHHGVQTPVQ
# PROCEDURE TEXT: BLI binding
# TEST SETTINGS: result in words
QUANTITY KIND: BLI binding

Below: 5 compounds and their reported BLI binding.
In [3]: df
Out[3]:
                           substance_smiles      result_value
0  CNC(=O)c1ccc2c(c1)C(=O)/C(=N\Nc1nc3ccccc3s1)C2        No binding
1  O=C1/C(=N\Nc2nc3ccccc3s2)Cc2cc(F)c(Cl)cc21  Positive binding
2  O=C1/C(=N\Nc2nc3ccccc3s2)Cc2cc(N3CCOCC3)ccc21        No binding
3  CC(C)(C)OC(=O)c1ccc2c(c1)C(=O)/C(=N\Nc1nc3ccccc3s1)C2        No binding
4    O=C1/C(=N\Nc2nc3ccccc3s2)Cc2ccc(F)cc21  Positive binding

Ask: Return BLI binding (reported value) for this compound: `O=C1/C(=N\Nc2nc3ccccc3s2)Cc2cc(C(F)(F)F)ccc21`
Result: Positive binding

Ask: Complete the entry with BLI binding for `CN(C)c1ccc2c(c1)C/C(=N/Nc1nc3ccccc3s1)C2=O`
Result: No binding

Ask: Provide only the value of recorded BLI binding for `O=C1/C(=N\Nc2nc3ccccc3s2)Cc2cc(Br)ccc21`
Result: Positive binding

====

# PROCEDURE TEXT: Metabolic stability in liver microsomes (MLM)
# Type: in vitro ADME, mice
# TEST SETTINGS: percent remaining at 60 min, 1 μM compound, 0.25 mg/mL protein, 1 mM NADPH
QUANTITY KIND: Met Stab % (60 mins) MLM (%)

Check out these entries, answers already filled in.
>>> df
                                   compound  unit_label  result_value
0    O=C1/C(=N\Nc2nc3ccccc3s2)Cc2c(F)cccc21           %             6
1  CC(C)(C)OC(=O)c1ccc2c(c1)C(=O)/C(=N\Nc1nc3ccccc3s1)C2           %            18
2    O=C1/C(=N\Nc2nc3ccccc3s2)Nc2cc(F)ccc21           %            18
3  CCN(CC)c1ccc2c(c1)C(=O)/C(=N\Nc1nc3ccccc3s1)C2           %             3
4     Fc1cc(F)c2nc(N/N=C3\CCc4ccccc43)sc2c1           %             7
5  O=C1/C(=N\Nc2nc3ccccc3s2)Cc2ccc(C(F)(F)F)cc21           %            82

a. Fc1cccc2c1/C(=N\Nc1nc3ccccc3s1)CC2
b. O=C(O)c1cnc(N/N=C2/Cc3ccccc3C2=O)s1
Ask: Higher Met Stab % (60 mins) MLM between a and b ? To answer, give the label that identifies your chosen option.
Result: b
(b: 94%, a: 0%)

A. O=C1/C(=N\Nc2nc3ccccc3s2)Cc2cc(F)ccc21
B. O=C1/C(=N\Nc2nc3ccccc3s2)Cc2ccc(Cl)cc21
C. O=C1/C(=N\Nc2nc3ccccc3s2)CCc2ccccc21
Ask: Place the items in sequence of falling Met Stab % (60 mins) MLM. Please write the labels in the order that was asked for.
Result: A, B, C
(A: 38%, B: 8%, C: 2%)

a. O=C1c2ccccc2CC1/C=N/Nc1nc2ccccc2s1 (stereo not shown)
b. c1ccc(N/N=C2\CCc3ccccc32)nc1
c. O=C1/C(=N\Nc2nc3ccccc3[nH]2)Cc2ccccc21
Ask: Highest Met Stab % (60 mins) MLM first, then in falling order down to the smallest. // ordering of labels required in reply
Result: a, c, b
(a: 33%, c: 1%, b: 0%)

A. CC1(C)/C(=N/Nc2nc3ccccc3s2)C(=O)c2ccccc21
B. Nc1ccc2c(c1)C/C(=N/Nc1nc3ccccc3s1)C2=O
Ask: Identify the entry with the smaller Met Stab % (60 mins) MLM: A or B . In your reply, give the label of the chosen option.
Result: B

====

# TEST TARGET: BRN2 (Homo sapiens)
# Sequence (P20265 1-443): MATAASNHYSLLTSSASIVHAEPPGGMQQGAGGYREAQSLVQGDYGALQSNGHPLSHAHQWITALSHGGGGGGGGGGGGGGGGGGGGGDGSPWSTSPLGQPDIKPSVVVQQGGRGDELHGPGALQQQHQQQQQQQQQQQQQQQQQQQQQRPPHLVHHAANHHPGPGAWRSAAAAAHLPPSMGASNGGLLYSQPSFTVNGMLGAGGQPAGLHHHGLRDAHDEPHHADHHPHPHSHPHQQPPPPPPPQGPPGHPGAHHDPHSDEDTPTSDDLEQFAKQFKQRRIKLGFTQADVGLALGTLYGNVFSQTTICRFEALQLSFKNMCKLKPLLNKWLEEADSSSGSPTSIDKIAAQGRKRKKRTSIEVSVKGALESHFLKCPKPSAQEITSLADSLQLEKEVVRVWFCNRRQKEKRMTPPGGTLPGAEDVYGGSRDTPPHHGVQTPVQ
# PROCEDURE TEXT: BLI binding
# TEST SETTINGS: result in words
QUANTITY KIND: BLI binding

Solved entries (count: 6):
>>> df
                           substance_smiles  quantity_kind      result_value
0   CCc1ccc2c(c1)C/C(=N/Nc1nc3ccccc3s1)C2=O    BLI binding        No binding
1  N#Cc1ccc2c(c1)C(=O)/C(=N\Nc1nc3ccccc3s1)C2    BLI binding  Positive binding
2  O=C1/C(=N\Nc2nc3ccccc3s2)Cc2cc(F)c(F)cc21    BLI binding  Positive binding
3  CC(C)Oc1ccc2c(c1)C(=O)/C(=N\Nc1nc3ccccc3s1)C2    BLI binding  Positive binding
4   O=C1/C(=N\Nc2nc3ccccc3s2)Cc2c(Cl)cccc21    BLI binding        No binding
5    Nc1ccc2c(c1)C/C(=N/Nc1nc3ccccc3s1)C2=O    BLI binding        No binding

Ask: State its BLI binding: `O=C1/C(=N\Nc2nc3ccccc3s2)Cc2c1ccc(F)c2F`
Result: Positive binding

Ask: State its BLI binding: `CCN(CC)c1ccc2c(c1)C(=O)/C(=N\Nc1nc3ccccc3s1)C2`
Result: Positive binding
